Numbers sourced from the supplement of paper PMC7877785.

experiment: self-splicing fitness, log relative to wild type (ln ratio); higher = more splicing; Tetrahymena group I intron in knt gene, E. coli kanamycin selection, DiMSum; sequences stand for … in CUCUCU…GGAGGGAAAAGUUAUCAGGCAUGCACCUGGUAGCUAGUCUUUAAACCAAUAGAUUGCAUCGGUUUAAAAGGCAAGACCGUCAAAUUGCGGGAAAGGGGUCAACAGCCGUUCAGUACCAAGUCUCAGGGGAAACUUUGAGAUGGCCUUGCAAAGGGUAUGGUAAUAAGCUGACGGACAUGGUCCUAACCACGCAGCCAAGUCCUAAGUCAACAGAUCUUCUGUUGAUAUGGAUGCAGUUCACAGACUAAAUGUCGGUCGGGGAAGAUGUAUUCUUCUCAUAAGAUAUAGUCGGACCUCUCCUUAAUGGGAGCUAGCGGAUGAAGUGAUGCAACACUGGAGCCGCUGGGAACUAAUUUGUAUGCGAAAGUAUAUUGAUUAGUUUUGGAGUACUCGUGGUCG; details: 37 °C;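 further: selection with 25 µg/mL kanamycin versus none on LB agar overnight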
// map self-splicing fitness (ln) onto a label; ranges band 1 (below -2), band 2 (-2 to below -0.7), band 3 (-0.7 or more)

RESIDUE CODES: GGAAAGCAAUAUUACGCAUC
CAT: band 1
--
RESIDUE CODES: UCUGAGCAAUAUUACGGAGU
CAT: band 1
--
RESIDUE CODES: UUUAAGCAAUAUUACGGGGA
CAT: band 2
--
RESIDUE CODES: CGCCAGCAAUAUUACGGACA
CAT: band 3
--
RESIDUE CODES: UCCGAGCAAUAUUACGUAGC
CAT: band 1
--
RESIDUE CODES: CACGAGCAAUAUUACGUAUG
CAT: band 1
--
RESIDUE CODES: GGCCAGCAAUAUUACGCUGA
CAT: band 3
--
RESIDUE CODES: CGGCAGCAAUAUUACGGAGC
CAT: band 1
--
RESIDUE CODES: CGCGAGCAAUAUUACGAAGC
CAT: band 2
--
RESIDUE CODES: CUGUAGCAAUAUUACGUAAG
CAT: band 3
--
RESIDUE CODES: CGUCAGCAAUAUUACGUGCA
CAT: band 3
--
RESIDUE CODES: UGGAAGCAAUAUUACGGGCG
CAT: band 3
--
RESIDUE CODES: UCUUAGCAAUAUUACGUCGU
CAT: band 2
--
RESIDUE CODES: GUCUAGCAAUAUUACGCGUG
CAT: band 2
--
RESIDUE CODES: AAUAAGCAAUAUUACGUCCA
CAT: band 2
--
RESIDUE CODES: UCAGAGCAAUAUUACGAUGG
CAT: band 2
--
RESIDUE CODES: CACCAGCAAUAUUACGACAU
CAT: band 1
--
RESIDUE CODES: UAGAAGCAAUAUUACGCUAU
CAT: band 1
--
RESIDUE CODES: GAGGAGCAAUAUUACGUUAG
CAT: band 2
--
RESIDUE CODES: ACUGAGCAAUAUUACGCAGC
CAT: band 2
--
RESIDUE CODES: CGAUAGCAAUAUUACGUGUG
CAT: band 3
--
RESIDUE CODES: AUCAAGCAAUAUUACGCCGU
CAT: band 3

====

assay: self-splicing fitness, log relative to wild type (ln ratio); higher = more splicing; Tetrahymena group I intron in knt gene, E. coli kanamycin selection, DiMSum; sequences stand for … in CUCUCU…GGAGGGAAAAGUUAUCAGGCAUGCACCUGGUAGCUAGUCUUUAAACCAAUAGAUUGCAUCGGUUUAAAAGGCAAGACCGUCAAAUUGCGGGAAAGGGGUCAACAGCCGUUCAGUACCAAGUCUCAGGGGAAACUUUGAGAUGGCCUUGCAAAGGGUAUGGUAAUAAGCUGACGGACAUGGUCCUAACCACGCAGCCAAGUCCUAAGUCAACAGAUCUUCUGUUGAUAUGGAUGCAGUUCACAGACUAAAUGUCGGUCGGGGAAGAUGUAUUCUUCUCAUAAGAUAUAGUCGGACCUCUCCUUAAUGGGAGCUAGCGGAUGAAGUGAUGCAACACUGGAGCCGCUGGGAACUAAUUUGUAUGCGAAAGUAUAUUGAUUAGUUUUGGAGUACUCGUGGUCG; settings: 37 °C
// label = class 1 if self-splicing fitness (ln) is not less than -2, otherwise class 0

RESIDUE CODES: CGCUAGCAAUAUUACGUGCG
CAT: class 0
//
RESIDUE CODES: GCCAAGCAAUAUUACGGCGA
CAT: class 1
//
RESIDUE CODES: CCACAGCAAUAUUACGGCGC
CAT: class 0
//
RESIDUE CODES: UGCAAGCAAUAUUACGGCUA
CAT: class 1
//
RESIDUE CODES: AGGGAGCAAUAUUACGCGUC
CAT: class 0
//
RESIDUE CODES: GGUCAGCAAUAUUACGAGUU
CAT: class 1
//
RESIDUE CODES: GAAAAGCAAUAUUACGGCAA
CAT: class 1
//
RESIDUE CODES: AAUGAGCAAUAUUACGUAGG
CAT: class 0
//
RESIDUE CODES: CUCUAGCAAUAUUACGUCGC
CAT: class 0
//
RESIDUE CODES: CUAUAGCAAUAUUACGAAUU
CAT: class 0
//
RESIDUE CODES: AGUUAGCAAUAUUACGCCUU
CAT: class 1
//
RESIDUE CODES: UCGCAGCAAUAUUACGUUAU
CAT: class 0
//
RESIDUE CODES: GCGCAGCAAUAUUACGGAUG
CAT: class 1
//
RESIDUE CODES: GCCGAGCAAUAUUACGUAGC
CAT: class 1
//
RESIDUE CODES: GACGAGCAAUAUUACGGGGU
CAT: class 0
//
RESIDUE CODES: GCAUAGCAAUAUUACGUGGU
CAT: class 0
//
RESIDUE CODES: CAUUAGCAAUAUUACGAGUG
CAT: class 0
//
RESIDUE CODES: UCUGAGCAAUAUUACGAACG
CAT: class 1
//
RESIDUE CODES: AUGCAGCAAUAUUACGGAGA
CAT: class 0
